ASSAY_SYSTEM: T1, human thioredoxin-like 32 kDa protein (hTXNL) (human, UniProt O43396 1-289, limits assumed)
T1 sequence: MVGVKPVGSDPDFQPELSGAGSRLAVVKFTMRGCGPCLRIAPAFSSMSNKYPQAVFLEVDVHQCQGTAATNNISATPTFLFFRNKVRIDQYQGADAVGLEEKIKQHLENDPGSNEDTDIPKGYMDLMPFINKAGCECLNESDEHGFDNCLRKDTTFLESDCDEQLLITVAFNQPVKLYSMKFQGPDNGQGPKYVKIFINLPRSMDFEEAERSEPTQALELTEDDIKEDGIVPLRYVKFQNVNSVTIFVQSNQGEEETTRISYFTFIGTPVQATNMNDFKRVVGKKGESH
PROCEDURE_SUMMARY: cell-based or functional assay
Ends that are not written are not given here.
# Reporter Ratio (A5T4 germline epsilon promoter GFP reporter line) listing for each entry below
Respond using a number only.

BINDER: PERCYMRMPPQSLADAAAYS (peptide, not shown: large carriers) [peptide DR15QI]
QUANTITATIVE_RESULT: 1.35
--
BINDER: PERCYMRMPPQSLADAQIYS (peptide, not shown: large carriers, also: expressed as BFP-linker-peptide fusion, construct not described) [peptide DR15wt]
QUANTITATIVE_RESULT: 1.69

Query string: Reporter Ratio (A5T4 germline epsilon promoter GFP reporter line) lookup needed for AARCYMRMPPQSLADAQIYS (peptide, not shown: large carriers) [peptide DR15PE] , thanks.
Result string: 2.22

Query string: If you can, please state the reported Reporter Ratio (A5T4 germline epsilon promoter GFP reporter line) value of PERCAARMPPQSLADAQIYS (peptide, not shown: large carriers) [peptide DR15YM] .
Result string: 1.22
